# TEST_SYSTEM: recombinant human Meningioma Expressed Antigen 5 (MGEA5), also referred to as O-GlcNAcase (OGA) (Homo sapiens, UniProt O60502)
# Construct: Full length OGA enzyme was purchased at OriGene (cat #TP322411); purchased OriGene TP322411
# Sequence (O60502 1-916): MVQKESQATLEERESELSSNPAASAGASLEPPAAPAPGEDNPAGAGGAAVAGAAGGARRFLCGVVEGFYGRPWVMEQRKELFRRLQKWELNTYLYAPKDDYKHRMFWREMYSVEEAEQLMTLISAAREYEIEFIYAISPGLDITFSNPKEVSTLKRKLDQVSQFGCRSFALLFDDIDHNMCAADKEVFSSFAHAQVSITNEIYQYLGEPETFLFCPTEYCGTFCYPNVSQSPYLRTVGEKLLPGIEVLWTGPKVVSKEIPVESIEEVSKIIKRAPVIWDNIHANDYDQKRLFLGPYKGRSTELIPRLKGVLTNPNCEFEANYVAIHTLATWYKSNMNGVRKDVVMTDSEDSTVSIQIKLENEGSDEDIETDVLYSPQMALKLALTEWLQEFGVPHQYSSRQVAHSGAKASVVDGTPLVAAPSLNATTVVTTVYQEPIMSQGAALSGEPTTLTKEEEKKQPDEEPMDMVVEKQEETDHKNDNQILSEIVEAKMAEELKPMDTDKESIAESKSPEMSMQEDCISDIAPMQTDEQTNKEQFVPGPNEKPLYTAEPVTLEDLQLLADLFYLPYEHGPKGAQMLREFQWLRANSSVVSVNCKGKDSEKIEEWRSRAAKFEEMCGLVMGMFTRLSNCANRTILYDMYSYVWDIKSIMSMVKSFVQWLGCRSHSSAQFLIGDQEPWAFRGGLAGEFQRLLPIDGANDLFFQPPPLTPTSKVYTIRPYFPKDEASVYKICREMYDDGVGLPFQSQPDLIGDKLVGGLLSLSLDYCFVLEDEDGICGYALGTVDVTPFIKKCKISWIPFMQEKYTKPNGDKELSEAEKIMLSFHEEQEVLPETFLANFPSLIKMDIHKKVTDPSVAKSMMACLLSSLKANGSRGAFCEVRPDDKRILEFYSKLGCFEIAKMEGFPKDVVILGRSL
# ASSAY_TEXT: OGA biochemical assay (inhibition of FM-GlcNAc hydrolysis, fluorescence)
# CONDITION_CONTEXT: FM-GlcNAc substrate, maximal effect
# Text: The assay is based on the inhibition of the hydrolysis of fluorescein mono-β-D-N-Acetyl-Glucosamine (FM-GlcNAc) (Mariappa et al. 2015, Biochem J 470:255) by the recombinant human Meningioma Expressed Antigen 5 (MGEA5), also referred to as O-GlcNAcase (OGA). […] The fluorescence of the latter can be measured at excitation wavelength 485 nm and emission wavelength 538 nm. An increase in enzyme activity results in an increase in fluorescence signal. […]
READOUT_TYPE: Enzymatic Emax (%)
Reply with just the number (in %).

MOLECULE	READOUT_TYPE	OBSERVED_RESULT
COc1cc(C[C@H]2CCN(C(C)c3ccc4c(n3)OCCC4)C2)cc(C)n1 (single isomer, unassigned) [Product 88]	Enzymatic Emax (%)	38

In: I have this molecule here, Cc1cc(C[C@@H]2CCN([C@H](C)c3ccc4c(n3)OCCO4)C2)cc(C)n1 (single isomer, unassigned) [Product 105] , and I need its recorded Enzymatic Emax (%).
Out: 91

In: I have this molecule here, CC(c1ccc2c(n1)OCCO2)N1CC[C@@H](Oc2ccc(C#N)nn2)C1 (single isomer, unassigned) [Product 54] , and I need its recorded Enzymatic Emax (%).
Out: 19

In: I have this molecule here, Cc1cc(CC2(C)CCN(C(C)c3ccc4c(n3)OCCO4)C2)cc(C)n1 (stereo not shown) [Product 59] , and I need its recorded Enzymatic Emax (%).
Out: 97

In: I have this molecule here, Cc1cc(C[C@@H]2CCN(C(C)c3cnc4c(c3)OCCO4)C2)cc(C)n1 (single isomer, unassigned) [Product 36] , and I need its recorded Enzymatic Emax (%).
Out: 99

In: I have this molecule here, Cc1cc(O[C@@H]2CCN(C(C)c3nc4c(cc3F)CCO4)C2)cc(C)n1 (single isomer, unassigned) [Product 19] , and I need its recorded Enzymatic Emax (%).
Out: 97

In: I have this molecule here, Cc1cc(O[C@@H]2CCN(C(C)c3ccc4c(n3)OCCO4)C2)cc(C)n1 (single isomer, unassigned) [Product 75] , and I need its recorded Enzymatic Emax (%).
Out: 99

====

Parameter log10 EC50: see the listing below.
# TEST_SYSTEM: OGA (Homo sapiens)
# Construct: endogenous in cells; host or cells: HEK293 cells inducible for P301L mutant human Tau (isoform 2N4R)
# Sequence (O60502 1-916): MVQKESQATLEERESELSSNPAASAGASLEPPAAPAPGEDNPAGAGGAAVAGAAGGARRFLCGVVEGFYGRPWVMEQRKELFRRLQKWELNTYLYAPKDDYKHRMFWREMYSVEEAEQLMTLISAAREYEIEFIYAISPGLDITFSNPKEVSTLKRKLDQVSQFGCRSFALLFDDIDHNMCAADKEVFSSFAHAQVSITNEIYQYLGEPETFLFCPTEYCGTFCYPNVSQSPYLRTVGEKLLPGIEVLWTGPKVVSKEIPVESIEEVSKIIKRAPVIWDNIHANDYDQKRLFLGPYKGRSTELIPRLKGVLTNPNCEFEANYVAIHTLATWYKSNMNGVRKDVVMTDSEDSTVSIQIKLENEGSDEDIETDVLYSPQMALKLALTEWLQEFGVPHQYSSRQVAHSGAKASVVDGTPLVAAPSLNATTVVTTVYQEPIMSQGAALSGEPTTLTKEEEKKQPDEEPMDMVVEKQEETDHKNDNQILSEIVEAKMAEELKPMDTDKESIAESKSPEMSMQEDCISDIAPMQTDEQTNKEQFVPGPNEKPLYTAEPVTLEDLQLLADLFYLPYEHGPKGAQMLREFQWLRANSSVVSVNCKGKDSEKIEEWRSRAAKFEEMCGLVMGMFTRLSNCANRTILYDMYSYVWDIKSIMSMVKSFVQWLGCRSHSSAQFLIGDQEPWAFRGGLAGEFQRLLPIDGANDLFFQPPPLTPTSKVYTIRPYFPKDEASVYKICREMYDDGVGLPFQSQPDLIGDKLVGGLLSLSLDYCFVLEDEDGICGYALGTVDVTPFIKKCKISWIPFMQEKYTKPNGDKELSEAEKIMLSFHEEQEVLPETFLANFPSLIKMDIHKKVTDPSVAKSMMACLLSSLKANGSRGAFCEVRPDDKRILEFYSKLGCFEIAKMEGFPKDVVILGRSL
# ASSAY_TEXT: OGA cellular assay (ICC detection of O-GlcNAcylated proteins in HEK293 cells inducible for P301L mutant human Tau)
# Format: cell-based
# CONDITION_CONTEXT: HEK293 cells inducible for P301L mutant human Tau, 6 hours incubation, ICC O-GlcNAcylation; read-out: Cellular hOGA; pEC50 (converted)
Units before log transform: nM; reported quantity: EC50; transform: log10.

Below, each entry is followed by its recorded log10 EC50 result.
MOLECULE	log10 EC50
Cc1cc(O[C@@H]2CCN(C(C)c3nc4c(cc3F)CCO4)C2)cc(C)n1 (single isomer, unassigned) [Product 19]	1.27
Cc1cc(C[C@H]2CCN([C@@H](C)c3ccc4c(c3)OCC4)C2)cc(C)n1 (single isomer, unassigned) [Product 14]	2.10
Cc1cc(C[C@@H]2CCN(C(C)c3nc4c(cc3F)OCCO4)C2)cc(C)n1 (mixture of isomers) [Product 79]	2.00
Cc1cc(C[C@@H]2CCN(C(C)c3nc4c(cc3F)OCCO4)C2)cc(C)n1 (single isomer, unassigned) [Product 52]	1.80
COc1cc(C[C@H]2CCN(C(C)c3nc4c(cc3F)CCO4)C2)cc(C)n1 (mixture of isomers) [Product 83]	1.50

In: State its log10 EC50 on OGA (Homo sapiens): Cc1cc(C[C@@H]2CCN(C(C)c3cc4c(cc3F)NCCO4)C2)cc(C)n1 (mixture of isomers) [Product 117]
Out: 2.50

====

# TEST_SYSTEM: OGA (Homo sapiens)
# Construct: endogenous in cells; host or cells: HEK293 cells inducible for P301L mutant human Tau (isoform 2N4R)
# Sequence (O60502 1-916): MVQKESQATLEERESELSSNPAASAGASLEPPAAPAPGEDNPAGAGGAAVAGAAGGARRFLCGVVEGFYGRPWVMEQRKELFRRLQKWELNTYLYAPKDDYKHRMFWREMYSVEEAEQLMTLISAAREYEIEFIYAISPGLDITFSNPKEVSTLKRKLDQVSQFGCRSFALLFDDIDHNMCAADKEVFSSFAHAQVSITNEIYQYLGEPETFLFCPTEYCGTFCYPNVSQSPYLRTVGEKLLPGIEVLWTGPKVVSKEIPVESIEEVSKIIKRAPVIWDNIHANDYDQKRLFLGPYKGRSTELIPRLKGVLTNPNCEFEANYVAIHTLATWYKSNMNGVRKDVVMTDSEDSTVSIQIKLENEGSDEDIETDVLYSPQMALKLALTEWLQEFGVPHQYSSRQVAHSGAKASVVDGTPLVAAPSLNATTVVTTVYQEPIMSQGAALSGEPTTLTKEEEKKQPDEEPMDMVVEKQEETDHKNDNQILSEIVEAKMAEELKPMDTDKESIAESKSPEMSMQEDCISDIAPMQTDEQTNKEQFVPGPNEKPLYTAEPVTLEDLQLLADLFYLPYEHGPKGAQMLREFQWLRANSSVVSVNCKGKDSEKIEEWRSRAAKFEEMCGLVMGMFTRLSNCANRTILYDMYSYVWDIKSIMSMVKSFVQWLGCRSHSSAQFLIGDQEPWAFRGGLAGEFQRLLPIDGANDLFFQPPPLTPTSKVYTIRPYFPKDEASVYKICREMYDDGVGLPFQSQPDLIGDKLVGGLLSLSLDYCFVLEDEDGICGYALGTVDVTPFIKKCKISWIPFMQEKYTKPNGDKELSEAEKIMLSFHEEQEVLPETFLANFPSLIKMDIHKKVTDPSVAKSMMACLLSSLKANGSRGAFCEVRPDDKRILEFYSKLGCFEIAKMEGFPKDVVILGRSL
# ASSAY_TEXT: OGA cellular assay (ICC detection of O-GlcNAcylated proteins in HEK293 cells inducible for P301L mutant human Tau)
# Format: cell-based
# CONDITION_CONTEXT: HEK293, HEK293 cells inducible for P301L mutant human Tau; maximum defined by Thiamet G at 200 uM
READOUT_TYPE: Emax (%)
Reply with just the number (in %).

Below, each entry is followed by its recorded Emax result.
MOLECULE	Emax / %
COc1cc(C[C@H]2CCN(C(C)c3cnc4c(c3)OCCN4)C2)cc(C)n1 (stereo partly shown)	61
COc1cc(C[C@H]2CCN(C(C)c3ccc4c(n3)OCCC4)C2)cc(C)n1 (mixture of isomers)	50
Cc1cc(OC[C@H]2CCN(C(C)c3ccc4c(n3)OCCO4)C2)cc(C)n1 (stereo partly shown)	9

Turning to the following molecule.
In: I have this molecule here, Cc1cc(OC[C@H]2CCN(C(C)c3nc4c(cc3F)OCCO4)C2)cc(C)n1 (mixture of isomers) , and I need its recorded Emax.
Out: 59
